- assay.protocol: Biodistribution in HEK293-hsst3+ tumor-bearing mice
- Type: in vivo
- test.settings: mouse, pancreas, iv, 10 pmol, total radioactivity; HEK293-hsst3+ tumor SCID mice, 4 h pi; mean ± SD; read-out: Pancreas uptake
recorded.metric: tissue uptake at 4 h
Put down the number, then write its unit next to it.

# molecule C[C@H](NC(=O)CN1CCN(CC(=O)O)CCN(CC(=O)O)CCN(CC(=O)O)CC1)C(=O)NCC(=O)N[C@H]1CSSC[C@@H](C(=O)O)NC(=O)[C@H](CO)NC(=O)[C@H]([C@@H](C)O)NC(=O)[C@H](Cc2ccccc2)NC(=O)[C@H]([C@@H](C)O)NC(=O)[C@H](CCCCN)NC(=O)[C@@H](Cc2c[nH]c3ccccc23)NC(=O)[C@H](Cc2ccccc2)NC(=O)[C@H](Cc2ccccc2)NC(=O)[C@H](CC(N)=O)NC(=O)[C@H](CCCCN)NC1=O [[^111In]AT2S, metal not drawn] ; its tissue uptake at 4 h = 3.33 %ID/g
